experimentalTarget: human HSV DNA polymerase UL30 (Human herpesvirus 1 (strain 17) (HHV-1) (Human herpes simplex virus 1))
assayNotes: HSV polymerase biochemical assay (molecular beacon-based)
experimentalEndpoint: log10(IC50) (log10 of the value in µM)

| compound | log10(IC50) |
| --- | --- |
| CS(=O)(=O)CCCN1CCn2c(c(N3CCCC3)cc(C(=O)NCc3ccc(Cl)cc3)c2=O)C1=O | 0.61 |
| COC1(CN2CCn3c(ccc(C(=O)NCc4ccc(Cl)cc4)c3=O)C2=O)CC1 | 0.45 |
| CC1Cn2c(ccc(C(=O)NCc3ccc(Cl)cc3)c2=O)C(=O)N1CCN(C)S(C)(=O)=O (stereo not shown) | 0.13 |
| N#Cc1ccc(CNC(=O)c2ccc3n(c2=O)CCN(CC2(S(=O)(=O)C4CC4(F)F)CC2)C3=O)cc1 (stereo not shown) | -1.24 |
| N#Cc1ccc(CNC(=O)c2ccc3n(c2=O)CCN(CC2(S(=O)(=O)C4CCC4)CC2)C3=O)cc1 | -1.48 |
| O=C(NCc1ccc(Cl)cc1)c1ccc2n(c1=O)CCN(CC1(S(=O)(=O)N3CCC3)CC1)C2=O | -1.45 |
| CCS(=O)(=O)N(C)CCN1CCn2c(ccc(C(=O)NCc3ccc(Cl)cc3)c2=O)C1=O | 0.17 |
